I'd appreciate it if you could supply Ratio values for the items below.
- Tested on: P388
- PROCEDURE_SUMMARY: Ratio of IC50 value of P388/A and P388/W cell lines
- Format: functional, Mus musculus
Answers are plain numbers.

Reference set, count: 5
CN(C)CCNC(=O)c1cccc2c(N)c3ccccc3nc12	66
CN(C)CCNC(=O)c1cccc2[nH]c(-c3ccc(N(C)C)cc3)nc12.Cl.Cl	2.7
Cc1ccc(C(=O)NCCN(C)C)c2nc(-c3ccccc3)[nH]c12.Cl.Cl	1.05
CN(C)CCNC(=O)c1cccc2[nH]c(-c3ccc4ccccc4c3)nc12.Cl.Cl	1.5
CN(C)CCNC(=O)c1cccc2[nH]c(-c3ccccc3Cl)nc12.Cl.Cl	1.4

Quick batch: Ratio for everything below.
1. Cc1ccccc1-c1nc2c(C(=O)NCCN(C)C)cccc2[nH]1.Cl.Cl
2. CN(C)CCNC(=O)c1cccc2[nH]c(-c3cccnc3)nc12.Cl.Cl
3. CN(C)CCNC(=O)c1cccc2[nH]c(-c3ccsc3)nc12.Cl.Cl
4. CN(C)CCNC(=O)c1cccc2[nH]c(-c3ccco3)nc12.Cl.Cl
5. Cc1cc(C(=O)NCCN(C)C)c2nc(-c3ccccc3)[nH]c2c1.Cl.Cl
6. CN(C)CCNC(=O)c1cccc2[nH]c(-c3ccccn3)nc12.Cl.Cl

## Output
1: 1.4; 2: 3; 3: 0.9; 4: 1; 5: 1.1; 6: 1.6

====

I'd appreciate it if you could supply Log KAT values for the items below.
- Tested on: Nucleic Acid
- PROCEDURE_SUMMARY: Binding constant to poly[d(AT)] by ethidium bromide displacement
- Assay type: nucleic-acid assay

CN(C)CCNC(=O)c1cccc2c1nc(-c1ccccc1)n2C	5.16
CN(C)CCNC(=O)c1cccc2[nH]c(-c3ccccc3Cl)nc12.Cl.Cl	5.22
CN(C)CCNC(=O)c1cccc2[nH]c(-c3cccc4c3OCO4)nc12.Cl.Cl	5.95

Quick batch: Log KAT for everything below.
1. CN(C)CCNC(=O)c1cccc2[nH]c(-c3ccc[nH]3)nc12.Cl.Cl
2. COc1ccc(-c2nc3c(C(=O)NCCN(C)C)cccc3[nH]2)cc1.Cl.Cl
3. CN(C)CCNC(=O)c1cccc2[nH]c(-c3ccco3)nc12.Cl.Cl
4. CN(C)CCNC(=O)c1cccc2[nH]c(-c3cccs3)nc12.Cl.Cl

## Output
5.38
5.62
5.18
5.48

Quick batch: Log KAT for everything below.
1. CN(C)CCNC(=O)c1cccc2[nH]c(-c3ccc(Cl)cc3)nc12.Cl.Cl
2. CN(C)CCNC(=O)c1cccc2[nH]c(-c3ccccc3)nc12
3. Cc1ccc2[nH]c(-c3ccccc3)nc2c1C(=O)NCCN(C)C.Cl.Cl
4. Cc1cc(C(=O)NCCN(C)C)c2nc(-c3ccccc3)[nH]c2c1.Cl.Cl

## Output
1: 5.52; 2: 5.41; 3: 5.14; 4: 5.06

====

I'd appreciate it if you could supply IC50 values for the items below.
- System: P388
- PROCEDURE_SUMMARY: In vitro cell growth inhibitory activity against amsacrine-resistant P388 cell line (P388/A)
- Type: functional, cell-based
- CONDITION: Mus musculus
Answers are plain numbers, in µM.

Reference set, count: 5
COc1ccccc1-c1nc2c(C(=O)NCCN(C)C)cccc2[nH]1.Cl.Cl	12.5
COc1cccc(-c2nc3c(C(=O)NCCN(C)C)cccc3[nH]2)c1OC.Cl.Cl	7.7
CN(C)CCNC(=O)c1cccc2[nH]c(-c3ccc(Cl)cc3)nc12.Cl.Cl	7.7
CN(C)CCNC(=O)c1cccc2[nH]c(-c3cccnc3)nc12.Cl.Cl	35.2
CN(C)CCNC(=O)c1cccc2[nH]c(-c3ccccn3)nc12.Cl.Cl	30.2

Quick batch: IC50 for everything below.
1. CN(C)CCNC(=O)c1cccc2[nH]c(-c3ccsc3)nc12.Cl.Cl
2. CN(C)CCNC(=O)c1cccc2cc3ccccc3nc12
3. CN(C)CCNC(=O)c1cccc2[nH]c(-c3cccc(Cl)c3)nc12.Cl.Cl

## Output
1: 24.3; 2: 2.02; 3: 8

Quick batch: IC50 for everything below.
1. Cc1cc(C(=O)NCCN(C)C)c2nc(-c3ccccc3)[nH]c2c1.Cl.Cl
2. CN(C)CCNC(=O)c1cccc2[nH]c(-c3ccccc3Cl)nc12.Cl.Cl

## Output
1: 22.4; 2: 22.5

====

I'd appreciate it if you could supply Log KAT values for the items below.
- Test system: Nucleic Acid
- PROCEDURE_SUMMARY: Binding constant to poly[d(AT)] by ethidium bromide displacement
- Assay type: nucleic-acid assay
Give bare numbers.

CN(C)CCNC(=O)c1cccc2ccc(-c3ccccc3)nc12	5.97
Cc1ccccc1-c1nc2c(C(=O)NCCN(C)C)cccc2[nH]1.Cl.Cl	5.48
CC(=O)Nc1ccc(-c2nc3c(C(=O)NCCN(C)C)cccc3[nH]2)cc1.Cl.Cl	5.34
CN(C)CCNC(=O)c1cccc2[nH]c(-c3ccccn3)nc12.Cl.Cl	5.06
Cc1cccc(-c2nc3c(C(=O)NCCN(C)C)cccc3[nH]2)c1.Cl.Cl	5.34
CN(C)CCNC(=O)c1cccc2[nH]c(-c3cccc4ccccc34)nc12.Cl.Cl	5.61
CN(C)CCNC(=O)c1cccc2nc(-c3ccccc3)n(C)c12.Cl.Cl	4.87
COc1ccccc1-c1nc2c(C(=O)NCCN(C)C)cccc2[nH]1.Cl.Cl	5.51

Quick batch: Log KAT for everything below.
1. Cc1ccc(C(=O)NCCN(C)C)c2nc(-c3ccccc3)[nH]c12.Cl.Cl
2. Cc1ccc(-c2nc3c(C(=O)NCCN(C)C)cccc3[nH]2)cc1.Cl.Cl
3. COc1cc(NS(C)(=O)=O)ccc1Nc1c2ccccc2nc2ccccc12 [AMSACRINE]
4. CN(C)CCNC(=O)c1cccc2[nH]c(-c3ccc(-c4ccccc4)cc3)nc12.Cl.Cl
5. CN(C)CCNC(=O)c1cccc2[nH]c(-c3ccsc3)nc12.Cl.Cl

## Output
1: 5.49; 2: 5.86; 3: 5.57; 4: 5.72; 5: 5.39

Quick batch: Log KAT for everything below.
1. CN(C)CCNC(=O)c1cccc2[nH]c(-c3ccc4ccccc4c3)nc12.Cl.Cl
2. COc1cccc(-c2nc3c(C(=O)NCCN(C)C)cccc3[nH]2)c1.Cl.Cl
3. COc1ccc(-c2nc3c(C(=O)NCCN(C)C)cccc3[nH]2)c(OC)c1OC.Cl.Cl
4. COc1cccc(-c2nc3c(C(=O)NCCN(C)C)cccc3[nH]2)c1OC.Cl.Cl
5. CN(C)CCNC(=O)c1cccc2[nH]c(-c3cccnc3)nc12.Cl.Cl

## Output
1: 5.19; 2: 5.43; 3: 5.37; 4: 5.92; 5: 5.04

Quick batch: Log KAT for everything below.
1. CN(C)CCNC(=O)c1cccc2[nH]c(-c3cccc(Cl)c3)nc12.Cl.Cl
2. CN(C)CCNC(=O)c1cccc2[nH]c(-c3ccc(N(C)C)cc3)nc12.Cl.Cl
3. CN(C)CCNC(=O)c1cccc2[nH]c(-c3ccncc3)nc12.Cl.Cl

## Output
6
6.43
5.43

====

- PROCEDURE_SUMMARY: pKa value was determined
- Type: physicochemical
PROPERTY_NAME: pKa

## Input May I ask what pKa has been recorded for CN(C)CCNC(=O)c1cccc2[nH]c(-c3ccccc3)nc12 ?
## Output 3.42

====

I'd appreciate it if you could supply pIC50 values for the items below.
- Tested on: P388
- PROCEDURE_SUMMARY: In vitro cell growth inhibitory activity against amsacrine-resistant P388 cell line (P388/A)
- Assay type: functional, cell-based
- CONDITION: Mus musculus
Answers are plain numbers, as −log10 of the molar value.

Cc1ccccc1-c1nc2c(C(=O)NCCN(C)C)cccc2[nH]1.Cl.Cl	4.49

Quick batch: pIC50 for everything below.
1. CN(C)CCNC(=O)c1cccc2[nH]c(-c3ccc4ccccc4c3)nc12.Cl.Cl
2. Cc1ccc(-c2nc3c(C(=O)NCCN(C)C)cccc3[nH]2)cc1.Cl.Cl
3. CN(C)CCNC(=O)c1cccc2[nH]c(-c3ccc(-c4ccccc4)cc3)nc12.Cl.Cl
4. CN(C)CCNC(=O)c1cccc2[nH]c(-c3cccs3)nc12.Cl.Cl
5. COc1ccc(-c2nc3c(C(=O)NCCN(C)C)cccc3[nH]2)cc1.Cl.Cl

## Output
1. 5.36
2. 4.90
3. 5.70
4. 4.59
5. 4.90

Quick batch: pIC50 for everything below.
1. CN(C)CCNC(=O)c1cccc2[nH]c(-c3ccc(N(C)C)cc3)nc12.Cl.Cl
2. CN(C)CCNC(=O)c1cccc2[nH]c(-c3ccco3)nc12.Cl.Cl
3. COc1cccc(-c2nc3c(C(=O)NCCN(C)C)cccc3[nH]2)c1.Cl.Cl
4. Cc1ccc(C(=O)NCCN(C)C)c2nc(-c3ccccc3)[nH]c12.Cl.Cl
5. Cc1cccc(-c2nc3c(C(=O)NCCN(C)C)cccc3[nH]2)c1.Cl.Cl
6. CN(C)CCNC(=O)c1cccc2c(N)c3ccccc3nc12
7. CN(C)CCNC(=O)c1cccc2[nH]c(-c3ccncc3)nc12.Cl.Cl

## Output
[5.15, 4.40, 4.61, 4.53, 4.84, 6.14, 4.80]
